Biological target: T1, murine PRLR (Biacore antigen) (murine, UniProt Q08501 20-229, limits assumed)
T1 construct: also called muPRLR
T1 sequence (looked up): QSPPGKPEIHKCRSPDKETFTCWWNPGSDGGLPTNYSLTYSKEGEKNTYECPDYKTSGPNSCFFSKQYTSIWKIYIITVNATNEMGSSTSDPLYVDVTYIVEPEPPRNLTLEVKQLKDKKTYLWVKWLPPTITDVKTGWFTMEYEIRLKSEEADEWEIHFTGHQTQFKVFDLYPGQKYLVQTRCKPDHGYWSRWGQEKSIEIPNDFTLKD
Experiment: SPR Biacore
Below, each entry is listed alongside its reported koff.
quantity: koff (s⁻¹)

{"binder": "Ab7 (antibody, V domains shown, murine monoclonal, isotype G1; also called murine Ab7) VH: QVQLQQPGAELVMPGTSVKLSCKASGYTFTSYWIHWVKQRPGQGLEWIGEIDPSDSYTNYNQKFKGKATLTVDRSSSTAYMQLSSLTSEDSAVYYCGRSFFTNWFAYWGQGTLVTVSA VL: DVVMTQTPLSLPVSLGDQASISCRSSQSLVHSNGNTYLHWYLQKPGQSPKLLIYKVSNRFSGVPDRFSGSGSGTDFTLKINRVEAEDLGVYFCSQSTHVPFTFGSGTKLEIK", "quantity": "koff", "readout units": "s⁻¹", "recorded measurement": 0.0035}
{"binder": "Ab54 (antibody, human IgG1, kappa, V domains shown, humanized from Ab7 (back mutations on Ab39); G1; also called Ab4 HC.1a.3 and Ab4 LC.1a) VH: EVQLVQSGAEVKKPGSSVKVSCKASGYTFTSYWIHWVRQAPGQGLEWIGEIDPSDSYTNYNQKFKGRATLTVDKSSSTAYMELSSLRSEDTAVYYCGRSFFTNWFAYWGQGTLVTVSS VL: DVVMTQTPLSLSVTPGQPASISCRSSQSLVHSNGNTYLHWYLQKPGQSPQLLIYKVSNRFSGVPDRFSGSGSGTDFTLKISRVEAEDVGVYFCSQSTHVPFTFGGGTKVEIKR", "quantity": "koff", "readout units": "s⁻¹", "recorded measurement": 0.007}
{"binder": "Ab55 (antibody, human IgG1, kappa, V domains shown, humanized from Ab7 (back mutations on Ab39); G1; also called Ab4 HC.1a.2 and Ab4 LC.1a) VH: EVQLVQSGAEVKKPGSSVKVSCKASGYTFTSYWIHWVRQAPGQGLEWIGEIDPSDSYTNYNQKFKGRATLTVDRSSSTAYMELSSLRSEDTAVYYCGRSFFTNWFAYWGQGTLVTVSS VL: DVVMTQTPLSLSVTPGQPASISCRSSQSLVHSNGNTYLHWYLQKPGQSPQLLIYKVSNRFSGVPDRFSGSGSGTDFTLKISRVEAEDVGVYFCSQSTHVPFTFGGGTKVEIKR", "quantity": "koff", "readout units": "s⁻¹", "recorded measurement": 0.0063}
